- Tested on: Leishmania donovani
- ASSAY PROTOCOL: Leishmania intramacrophage assay
- Assay type: functional, organism-based
- Design: scale not given: in the data most compounds retested in dose-response had high values
- CONDITION: 30.3 µM; […]
The campaign covered roughly 69,000 compounds. About 1,000 (1.4%) showed an effect of 50% or more. For the sample, strong results were picked, then their nearest neighbours and some compounds at random.
Mark each entry true (1) if its Percent Effect sits below 30%, and false (0) for all others.

INSERT INTO results (compound, label) VALUES
  ('O=c1[nH]c(-c2ccc(F)c(F)c2)nc2c1CCNC2', 'false (0)'),
  ('CC(C)(C(=O)NCc1n[nH]c(=O)[nH]1)c1ccc(F)cc1', 'true (1)'),
  ('CCOCc1ccccc1NC(=O)NC1CCN(C2CCCC2)C1 (stereo unspecified)', 'true (1)'),
  ('Cn1cc(C2CN(C(=O)Cc3coc(-c4ccccc4)n3)CCO2)cn1 (stereo unspecified)', 'true (1)'),
  ('COCC(=O)N1CCC2(CCN(c3cnn(C)c3)C2=O)C1 (stereo unspecified)', 'true (1)'),
  ('O=c1[nH]c(-c2ccc(F)cc2)nc2c1CCNC2', 'true (1)'),
  ('O=C1Nc2ccccc2CN(CC2CC2)C12CCNC2 (stereo unspecified)', 'true (1)'),
  ('COc1ccnc(CNc2nc(C)nc(C)c2C)c1', 'false (0)'),
  ('COCCN1CCN(Cc2c(C3CCNCC3)[nH]c3ncccc23)CC1.Cl', 'true (1)'),
  ('CC(=O)N1CCCC2(C1)CN(c1nncs1)CCO2.O=C(O)C(F)(F)F (stereo unspecified)', 'false (0)'),
  ('Cn1cc(N2CC3(COCCN(Cc4ccccn4)C3)OCC2=O)cn1.O=C(O)C(F)(F)F (stereo unspecified)', 'false (0)'),
  ('COc1ccccc1CNCc1nn(-c2ccccc2)c2c1CCC2', 'false (0)'),
  ('CNC(=O)c1cnc(/C=C/c2cc(OC)c(O)c(OC)c2)s1', 'true (1)'),
  ('Cc1ccc(C)c(-n2ncc(C(=O)NCC3COC(C)(C)O3)c2N)c1 (stereo unspecified)', 'true (1)'),
  ('N#Cc1c(N)nc2c(c1C1CCOC1)CCc1cc(O)ccc1-2 (stereo unspecified)', 'true (1)'),
  ('Cc1cnn(-c2cccc(N3CCCC3)n2)c1', 'false (0)'),
  ('Cc1noc(C)c1C(=O)N(C)C(C)c1cccnc1 (stereo unspecified)', 'true (1)'),
  ('Cc1c(CNCc2nn(-c3ccccc3)c3c2CCC3)cc(C#N)n1C', 'false (0)'),
  ('Cc1nnc([C@@]23CCO[C@@H]2CCN(S(=O)(=O)c2cccnc2)C3)o1', 'true (1)'),
  ('O=C(c1cn(CCN2CCCCC2)nn1)N1CCSCC1', 'true (1)'),
  ('CCc1cc(NCCc2cnccn2)n2nc(C)c(C)c2n1', 'true (1)'),
  ('COCC1CN(S(=O)(=O)c2cccs2)Cc2ncnn2C1 (stereo unspecified)', 'false (0)'),
  ('CN(C(=O)c1ccc(S(=O)(=O)NC(C)(C)C)cc1)C1(C#N)CCC1', 'true (1)'),
  ('CNc1nc(N2C[C@H](NC(=O)CCOC)[C@@H](C3CC3)C2)nc2c1CCC2', 'true (1)'),
  ('Cc1nnc([C@@]23CCO[C@@H]2CCN(S(C)(=O)=O)C3)o1', 'true (1)'),
  ('Cc1noc(C)c1CNCc1nn(-c2ccccc2)c2c1CCC2', 'true (1)'),
  ('CC(C)=CCN1CCN(C(=O)C2CC2)CC1', 'true (1)'),
  ('CC1=C(C(=O)N2CCCC(Cn3cc(CO)nn3)C2)OCCO1 (stereo unspecified)', 'true (1)'),
  ('Cl.c1cnc(Nc2cncc(C3CCCN3)n2)cn1 (stereo unspecified)', 'true (1)'),
  ('O=C1Nc2ccccc2CN(CC2CCCC2)C12CCNC2 (stereo unspecified)', 'false (0)'),
  ('COc1ncccc1CN1CCc2[nH]nc(C(=O)N(C)C)c2C1', 'true (1)'),
  ('Cc1cc(NCCc2c(C)n[nH]c2C)nc(-c2cccnc2)n1', 'true (1)'),
  ('Cc1noc([C@@]23CCO[C@@H]2CCN(S(=O)(=O)c2cccnc2)C3)n1', 'false (0)'),
  ('COc1ccc(OC)c(C2CCN(C(=O)CCc3n[nH]c(N)n3)C2)c1 (stereo unspecified)', 'true (1)'),
  ('Nc1nc(N)c2c(n1)OC1(CCCN(Cc3nccs3)CC1)C2 (stereo unspecified)', 'true (1)'),
  ('COCCN1C[C@H]2CCN(C(=O)c3cc(C)on3)CC[C@H]2S1(=O)=O', 'true (1)'),
  ('Cc1cc(C)n(C2CCN(S(C)(=O)=O)CC2)n1', 'true (1)'),
  ('CCN(CCCNC(=O)Nc1ccccc1C(C)C)S(C)(=O)=O', 'true (1)'),
  ('COCCNC(=O)C[C@@H]1COC[C@H]2CN(C(=O)COC)C[C@@H]12', 'false (0)'),
  ('Cc1ccc(N2C[C@H](C(=O)N3CCOCC3)[C@@H]3CCO[C@@H]3C2)nn1', 'true (1)'),
  ('COc1cc(CN2CCC(COCc3ccccc3)CC2)cc(OC)c1', 'true (1)'),
  ('O=C(c1ccco1)N1CCCC2(C1)CN(c1nncs1)CCO2 (stereo unspecified)', 'false (0)'),
  ('CNCC(=O)N[C@H]1CN(c2nc(C)c3c(n2)CCCC3)C[C@@H]1C1CC1', 'false (0)'),
  ('Cc1nc(Nc2ncccn2)cc(C2CCN(CC(C)C)C2)n1 (stereo unspecified)', 'true (1)'),
  ('O=C1Nc2ccccc2CNC12CCN(CC1CCCC1)CC2', 'true (1)');

---

- Test system: Leishmania donovani
- ASSAY PROTOCOL: Leishmania intramacrophage assay
- Assay type: functional, organism-based
- Set-up: scale not given: in the data most compounds retested in dose-response had high values
- CONDITION: 30 µM; 30.03 µM
About 1,000 (1.4%) of roughly 69,000 compounds showed an effect of 50% or more. For the sample, strong results were picked, then their nearest neighbours and some compounds at random.
EXPERIMENTAL READOUT: Percent Effect (%)

INSERT INTO assay_data (molecule, experimental_readout, recorded_number) VALUES
  ('Cc1nn(C)c(N(C)C)c1CNCc1cccc(OCCN(C)C)c1', 'Percent Effect', -13.13),
  ('CC(C)CCN1Cc2c(C(=O)O)ncn2-c2ccccc2S1(=O)=O', 'Percent Effect', -20.47),
  ('Cc1noc(C)c1CN1CCN(CC2CC2)c2ncccc2C1.O=C(O)C(F)(F)F.O=C(O)C(F)(F)F', 'Percent Effect', 23.02),
  ('O=C(O)C(F)(F)F.O=C(c1cccc(Cl)c1)N1CC[C@H]2[C@H]1CCN2CC1CCOCC1', 'Percent Effect', 39.19),
  ('Cc1nc(CN2CCN(Cc3nccn3C)CC2)no1', 'Percent Effect', 11.72),
  ('Cc1[nH]/c(=N\C(=O)c2csc(NCC(C)C)n2)sc1C', 'Percent Effect', 87.72),
  ('Cc1noc(C)c1CN1CCN(Cc2ccncc2)c2ncccc2C1.O=C(O)C(F)(F)F.O=C(O)C(F)(F)F.O=C(O)C(F)(F)F', 'Percent Effect', -14.87),
  ('CS(=O)(=O)N1CCOCC2(CN(Cc3ccco3)CCO2)C1.O=C(O)C(F)(F)F (stereo not drawn)', 'Percent Effect', -12.04),
  ('CCS(=O)(=O)N1CCOC2(CCCN(c3ccc(C)nn3)C2)C1.O=C(O)C(F)(F)F (stereo not drawn)', 'Percent Effect', 11.03),
  ('CCc1nc(C)c([C@H]2CN(C)C[C@@H]2C(=O)NCCc2cnccn2)[nH]1', 'Percent Effect', 23.64),
  ('COc1cc(CNCc2ccnc(N3CCOCC3)c2)cc(Cl)c1OC', 'Percent Effect', 26.59),
  ('Cc1cccc(-c2noc(CN3CCCC(Cn4cncn4)C3)n2)c1 (stereo not drawn)', 'Percent Effect', 23.08),
  ('CC(C)CNc1nc(C(=O)/N=c2\[nH]nc(C(C)(C)C)s2)cs1', 'Percent Effect', -9.293),
  ('CCN1C[C@H]2CCN(C(=O)NC3CCCC3)CC[C@H]2S1(=O)=O', 'Percent Effect', -4.578),
  ('Cc1ccc(CN2CCCC23CCN(S(=O)(=O)c2ccccc2)C3)o1 (stereo not drawn)', 'Percent Effect', 49.3),
  ('Cc1nccn1CC1CCCN1S(=O)(=O)Cc1ccccc1F (stereo not drawn)', 'Percent Effect', 17.08),
  ('Cc1nn(C)c(Cl)c1C1CCCN1C(=O)c1nccnc1N (stereo not drawn)', 'Percent Effect', 1.892),
  ('CN1CCN(Cc2nnc(C3CCN(CC4CC4)CC3)n2C)CC1', 'Percent Effect', 36.3),
  ('CC1(C)CC(N2Cc3nc(N)ncc3C2=O)CC(C)(C)N1', 'Percent Effect', 0.1811),
  ('CCOc1ccc(Cl)cc1C1CCCN1.Cl (stereo not drawn)', 'Percent Effect', 7.031),
  ('Cc1cccc(C2(C(=O)NCCCn3cccn3)CC2)c1', 'Percent Effect', 17.4),
  ('O=C(Cc1cccc(Cl)c1)N[C@@H]1CCNC[C@H]1O', 'Percent Effect', -4.847),
  ('COc1ccc(CNC(C)c2cccc(Cl)c2)c(OC)c1OC (stereo not drawn)', 'Percent Effect', 25.49),
  ('Cc1cc(=O)[nH]c(NCCNC(=O)C(c2ccc(F)cc2)N(C)C)n1 (stereo not drawn)', 'Percent Effect', -13),
  ('Cn1cnnc1C1CCCN(C(=O)NCCOc2ccccc2)C1 (stereo not drawn)', 'Percent Effect', 2.584),
  ('Cc1nc(CNC(=O)Cn2nc(-c3ccc(F)cc3)oc2=O)cs1', 'Percent Effect', -4.773),
  ('CC(=O)NCC(=O)N1CCOC2(CCCN(c3cccnc3)C2)C1.O=C(O)C(F)(F)F (stereo not drawn)', 'Percent Effect', 4.273),
  ('CC(C)NC(=O)c1sccc1N(C)S(=O)(=O)c1ccc(Cl)cc1', 'Percent Effect', 7.242),
  ('COCCNC(=O)c1sc(Nc2ccc(Cl)cn2)nc1C', 'Percent Effect', -6.179),
  ('COc1cc(S(=O)(=O)N2CCCc3ccccc32)cc(C(=O)O)c1OC', 'Percent Effect', 1.897),
  ('COc1ccc(CCC(=O)Nc2cccnc2N2CCCC2)cc1Br', 'Percent Effect', 33.61),
  ('Cc1ccccc1CN1CCC(NCC2CNc3ccnn3C2)CC1 (stereo not drawn)', 'Percent Effect', 58.34),
  ('COC(=O)CCc1c(C)nn(-c2nc(C)cc(=O)[nH]2)c1C', 'Percent Effect', -18.05);
